Below, each of the compounds is paired with its reported IN VIVO STUDIES Calcium serum value.
Applied Conditions: mouse, in vivo, ip
Reply numerically in %, unit not repeated.

Example results:
Compound	IN VIVO STUDIES Calcium serum [%]
CC(CCCC(C)(C)O)C1CCC2C(=CC=C3CC(O)C(C)C(O)C3)CCCC21C (stereo not shown) [Compound 105]	0.4
CC(CCCC(C)(C)O)C1CCC2C(=CC=C3CC(O)C(C)C(O)C3)CCCC21C (stereo not shown) [Compound 101]	0.5
C[C@H](CCCC(C)(C)O)[C@H]1CC[C@@H]2/C(=C/C=C3C[C@@H](O)C[C@H](O)C3)CCC[C@@]21C [14-epi-19-nor-1α,25(OH)2D3, reference compound]	0.3
CC(CCCC(C)(C)O)C1CCC2C(=CC=C3CC(O)C(C)C(O)C3)CCCC21C (stereo not shown) [Compound 102]	40

(Q) Report IN VIVO STUDIES Calcium serum, nothing else, for this compound: CC(CC#CC(C)(C)O)C1CCC2C(=CC=C3CC(O)C(C)C(O)C3)CCCC21C (stereo not shown) [Compound 103]
(A) 0.4

(Q) Answer with the recorded IN VIVO STUDIES Calcium serum for the compound listed here: CCC1C(O)CC(=CC=C2CCCC3(C)C2CCC3C(C)CC#CC(C)(C)O)CC1O (stereo not shown) [Compound 116]
(A) 0.2

----------
Some molecules, each annotated with its measured IN VIVO STUDIES Calcium serum.
Applied Conditions: mouse, in vivo, ip
Express your answer in %, writing the number without its unit.

Examples with their reported IN VIVO STUDIES Calcium serum follow.
Molecule	Unit Spec	IN VIVO STUDIES Calcium serum
CCC1C(O)CC(=CC=C2CCCC3(C)C2CCC3C(C)CC#CC(C)(C)O)CC1O (stereo not drawn) [Compound 112, 2α-ethyl-19-nor-23-yne-1α,25(OH)2D3]	%	1.6
CCC1C(O)CC(=CC=C2CCCC3(C)C2CCC3C(C)CCCC(C)(C)O)CC1O (stereo not drawn) [Compound 114, 2α-ethyl-14-epi-19-nor-1α,25(OH)2D3]	%	1
CCC1C(O)CC(=CC=C2CCCC3(C)C2CCC3C(C)CCCC(C)(C)O)CC1O (stereo not drawn) [Compound 109, 2β-ethyl-19-nor-1α,25(OH)2D3]	%	0.4
CC(CCCC(C)(C)O)C1CCC2C(=CC=C3CC(O)C(C)C(O)C3)CCCC21C (stereo not drawn) [Compound 106]	%	13

(Q) Give IN VIVO STUDIES Calcium serum for CC(CC#CC(C)(C)O)C1CCC2C(=CC=C3CC(O)C(C)C(O)C3)CCCC21C (stereo not drawn) [Compound 107]
(A) 0.4

(Q) Please report the measured IN VIVO STUDIES Calcium serum for C=C1/C(=C\C=C2/CCC[C@]3(C)[C@@H]([C@H](C)CCCC(C)(C)O)CC[C@@H]23)C[C@@H](O)C[C@@H]1O [1α,25(OH)2D3, 1α,25-dihydroxyvitamin D3, reference compound]
(A) 100

(Q) Using known records, supply IN VIVO STUDIES Calcium serum for CCC1C(O)CC(=CC=C2CCCC3(C)C2CCC3C(C)CC#CC(C)(C)O)CC1O (stereo not drawn) [Compound 111, 2β-ethyl-19-nor-23-yne-1α,25(OH)2D3]
(A) 0.4

----------
System Tested: hDBP (Homo sapiens)
Assay Summary: Affinity for human DBP: competition with [3H]1α,25(OH)2D3
Assay type: binding
Applied Conditions: percentage activity (at 50% of the dose response) in comparison with 1α,25(OH)2D3 (=100%)
Readout Label: AFFINITY STUDIES DBP

(Q) Give a short answer stating reported AFFINITY STUDIES DBP for CC(CCCC(C)(C)O)C1CCC2C(=CC=C3CC(O)C(C)C(O)C3)CCCC21C (stereo not shown) [Compound 102] .
(A) 50%

(Q) # return recorded AFFINITY STUDIES DBP for entry C[C@H](CCCC(C)(C)O)[C@H]1CC[C@@H]2/C(=C/C=C3C[C@@H](O)C[C@H](O)C3)CCC[C@@]21C [14-epi-19-nor-1α,25(OH)2D3, reference compound]
(A) 15%

(Q) State, in one line, measured AFFINITY STUDIES DBP of CC(CCCC(C)(C)O)C1CCC2C(=CC=C3CC(O)C(C)C(O)C3)CCCC21C (stereo not shown) [Compound 101]
(A) 9%

(Q) Determine its reported AFFINITY STUDIES DBP: CCC1C(O)CC(=CC=C2CCCC3(C)C2CCC3C(C)CC#CC(C)(C)O)CC1O (stereo not drawn) [Compound 112, 2α-ethyl-19-nor-23-yne-1α,25(OH)2D3]
(A) 0.9%

(Q) Provide only the value of recorded AFFINITY STUDIES DBP for CCC1C(O)CC(=CC=C2CCCC3(C)C2CCC3C(C)CCCC(C)(C)O)CC1O (stereo not drawn) [Compound 109, 2β-ethyl-19-nor-1α,25(OH)2D3]
(A) 9%

(Q) Specify AFFINITY STUDIES DBP for CC(CC#CC(C)(C)O)C1CCC2C(=CC=C3CC(O)C(C)C(O)C3)CCCC21C (stereo not shown) [Compound 103] and stop.
(A) 1%

(Q) Recall and state the measured AFFINITY STUDIES DBP for CC(CC#CC(C)(C)O)C1CCC2C(=CC=C3CC(O)C(C)C(O)C3)CCCC21C (stereo not shown) [Compound 107] .
(A) 0%

----------
Item-by-item account of AFFINITY STUDIES DBP
System Tested: hDBP (Homo sapiens, UniProt P02774)
Sequence (P02774 17-474): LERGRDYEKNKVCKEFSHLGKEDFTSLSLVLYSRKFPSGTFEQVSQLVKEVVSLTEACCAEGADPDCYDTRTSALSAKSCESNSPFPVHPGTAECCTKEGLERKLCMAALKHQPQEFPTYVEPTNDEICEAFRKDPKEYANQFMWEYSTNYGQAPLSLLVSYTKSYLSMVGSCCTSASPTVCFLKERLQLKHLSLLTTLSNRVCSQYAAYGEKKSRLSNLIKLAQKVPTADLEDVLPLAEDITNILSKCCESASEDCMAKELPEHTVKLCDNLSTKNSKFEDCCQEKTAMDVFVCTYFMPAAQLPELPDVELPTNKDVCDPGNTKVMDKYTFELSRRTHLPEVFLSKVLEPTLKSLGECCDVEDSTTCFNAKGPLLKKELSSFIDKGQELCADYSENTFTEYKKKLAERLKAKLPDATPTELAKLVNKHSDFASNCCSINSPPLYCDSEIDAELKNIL
Assay Summary: Affinity for human DBP: competition with [3H]1α,25(OH)2D3
Assay type: binding
Applied Conditions: percentage activity (at 50% of the dose response) in comparison with 1α,25(OH)2D3 (=100%)
Numbers only here, please. The scale is %.

Example entries begin here.
Compound	Unit Spec	Value Measured
CC(CC#CC(C)(C)O)C1CCC2C(=CC=C3CC(O)C(C)C(O)C3)CCCC21C (stereo not shown) [Compound 117]	%	0
CCC1C(O)CC(=CC=C2CCCC3(C)C2CCC3C(C)CC#CC(C)(C)O)CC1O (stereo not shown) [Compound 116]	%	0.1
CCC1C(O)CC(=CC=C2CCCC3(C)C2CCC3C(C)CCCC(C)(C)O)CC1O (stereo not shown) [Compound 113]	%	3

(Q) For the compound CCC1C(O)CC(=CC=C2CCCC3(C)C2CCC3C(C)CC#CC(C)(C)O)CC1O (stereo not shown) [Compound 115] , report AFFINITY STUDIES DBP.
(A) 0.2

----------
Applied Conditions: mouse, in vivo, ip
Readout Label: IN VIVO STUDIES Calcium urine (%)
Write down the numeric answer in % and omit the unit.

Reference set, count: 4
Molecule	Unit Spec	IN VIVO STUDIES Calcium urine
CCC1C(O)CC(=CC=C2CCCC3(C)C2CCC3C(C)CCCC(C)(C)O)CC1O (centres unmarked) [Compound 113]	%	0.4
CC(CCCC(C)(C)O)C1CCC2C(=CC=C3CC(O)C(C)C(O)C3)CCCC21C (centres unmarked) [Compound 105]	%	0.4
C[C@H](CCCC(C)(C)O)[C@H]1CC[C@@H]2/C(=C/C=C3C[C@@H](O)C[C@H](O)C3)CCC[C@@]21C [14-epi-19-nor-1α,25(OH)2D3, reference compound]	%	0.4
CCC1C(O)CC(=CC=C2CCCC3(C)C2CCC3C(C)CCCC(C)(C)O)CC1O (stereo not drawn) [Compound 110, 2α-ethyl-19-nor-1α,25(OH)2D3]	%	13

Next molecule, please.
(Q) Retrieve IN VIVO STUDIES Calcium urine measured for C=C1/C(=C\C=C2/CCC[C@]3(C)[C@@H]([C@H](C)CCCC(C)(C)O)CC[C@@H]23)C[C@@H](O)C[C@@H]1O [1α,25(OH)2D3, 1α,25-dihydroxyvitamin D3, reference compound] and print it.
(A) 100

----------
System: HL-60 cells
Assay Summary: HL-60 cell differentiation (NBT reduction assay)
Type: cell-based
Applied Conditions: potency to differentiate HL 60 cells, percentage activity vs 1α,25(OH)2D3 (=100%)
Lab note: anything with IN VITRO STUDIES HL 60 below 400% is marked T; values at 400% or higher are marked F.

Reference set, count: 5
Molecule	System Tested	Group
CCC1C(O)CC(=CC=C2CCCC3(C)C2CCC3C(C)CCCC(C)(C)O)CC1O (stereo not drawn) [Compound 114, 2α-ethyl-14-epi-19-nor-1α,25(OH)2D3]	HL-60 cells	T
C[C@H](CCCC(C)(C)O)[C@H]1CC[C@@H]2/C(=C/C=C3C[C@@H](O)C[C@H](O)C3)CCC[C@@]21C [14-epi-19-nor-1α,25(OH)2D3, reference compound]	HL-60 cells	T
CC(CC#CC(C)(C)O)C1CCC2C(=CC=C3CC(O)C(C)C(O)C3)CCCC21C (stereo not drawn) [Compound 118]	HL-60 cells	T
CCC1C(O)CC(=CC=C2CCCC3(C)C2CCC3C(C)CCCC(C)(C)O)CC1O (stereo not drawn) [Compound 113]	HL-60 cells	T
CC(CCCC(C)(C)O)C1CCC2C(=CC=C3CC(O)C(C)C(O)C3)CCCC21C (stereo not drawn) [Compound 102]	HL-60 cells	F

(Q) Say whether its IN VITRO STUDIES HL 60 is strictly beneath 400%. Entry: C=C1/C(=C\C=C2/CCC[C@]3(C)[C@@H]([C@H](C)CCCC(C)(C)O)CC[C@@H]23)C[C@@H](O)C[C@@H]1O [1α,25(OH)2D3, 1α,25-dihydroxyvitamin D3, reference compound]
(A) T

(Q) # strict comparison: is reported IN VITRO STUDIES HL 60 < 400%? input = CC(CCCC(C)(C)O)C1CCC2C(=CC=C3CC(O)C(C)C(O)C3)CCCC21C (stereo not drawn) [Compound 105]
(A) T

(Q) For CCC1C(O)CC(=CC=C2CCCC3(C)C2CCC3C(C)CC#CC(C)(C)O)CC1O (stereo not drawn) [Compound 115] , is the recorded IN VITRO STUDIES HL 60 below the cut-off of 400%?
(A) T

(Q) Please state whether IN VITRO STUDIES HL 60 is below 400% for CC(CC#CC(C)(C)O)C1CCC2C(=CC=C3CC(O)C(C)C(O)C3)CCCC21C (stereo not drawn) [Compound 103]
(A) T

(Q) Below 400% on IN VITRO STUDIES HL 60? Entry CC(CCCC(C)(C)O)C1CCC2C(=CC=C3CC(O)C(C)C(O)C3)CCCC21C (stereo not drawn) [Compound 101]
(A) T

(Q) Take the molecule CCC1C(O)CC(=CC=C2CCCC3(C)C2CCC3C(C)CCCC(C)(C)O)CC1O (stereo not drawn) [Compound 110, 2α-ethyl-19-nor-1α,25(OH)2D3] and say whether its IN VITRO STUDIES HL 60 is less than 400%.
(A) T

(Q) For CC(CCCC(C)(C)O)C1CCC2C(=CC=C3CC(O)C(C)C(O)C3)CCCC21C (stereo not drawn) [Compound 106] , is the recorded IN VITRO STUDIES HL 60 below the cut-off of 400%?
(A) F

(Q) In the record for CCC1C(O)CC(=CC=C2CCCC3(C)C2CCC3C(C)CC#CC(C)(C)O)CC1O (stereo not drawn) [Compound 112, 2α-ethyl-19-nor-23-yne-1α,25(OH)2D3] , is IN VITRO STUDIES HL 60 less than 400%?
(A) T

(Q) Just wondering, is IN VITRO STUDIES HL 60 of CCC1C(O)CC(=CC=C2CCCC3(C)C2CCC3C(C)CC#CC(C)(C)O)CC1O (stereo not drawn) [Compound 116] below 400%?
(A) F

(Q) Please check: IN VITRO STUDIES HL 60 for CCC1C(O)CC(=CC=C2CCCC3(C)C2CCC3C(C)CC#CC(C)(C)O)CC1O (stereo not drawn) [Compound 111, 2β-ethyl-19-nor-23-yne-1α,25(OH)2D3] , strictly under 400% or not?
(A) T

(Q) Does this molecule meet the criterion IN VITRO STUDIES HL 60 < 400%? CC(CC#CC(C)(C)O)C1CCC2C(=CC=C3CC(O)C(C)C(O)C3)CCCC21C (stereo not drawn) [Compound 141]
(A) F

(Q) Lab note: IN VITRO STUDIES HL 60 threshold 400%. Does this molecule come in strictly under it? CC(CC#CC(C)(C)O)C1CCC2C(=CC=C3CC(O)C(C)C(O)C3)CCCC21C (stereo not drawn) [Compound 104]
(A) F

(Q) Record CCC1C(O)CC(=CC=C2CCCC3(C)C2CCC3C(C)CCCC(C)(C)O)CC1O (stereo not drawn) [Compound 109, 2β-ethyl-19-nor-1α,25(OH)2D3] : is its IN VITRO STUDIES HL 60 strictly below 400%?
(A) T
